Measured IC50, listed per entry for reference.
Test target: recombinant Plk1 protein (Homo sapiens)
Construct: histidine tag (N)
Assay details: Plk1 kinase activity inhibition assay (33P-ATP, alpha casein substrate, flash plates)
Cond: enzymatic assay, 100 nM Li-ATP, 80 minutes at 30° C.

# example entries with known answers
Compound | Test target | IC50
C[C@@H](Oc1cc(-n2cnc3cnc(CN4CCN(CCN5CCOCC5)CC4)cc32)sc1C(N)=O)c1ccccc1C(F)(F)F | recombinant Plk1 protein (Homo sapiens) | 10 to 100 nM
C[C@@H](Oc1cc(-n2cnc3cnc(CN4CCN(c5ccncc5)CC4)cc32)sc1C(N)=O)c1ccccc1Cl | recombinant Plk1 protein (Homo sapiens) | 10 to 100 nM
C[C@@H](Oc1cc(-n2cnc3cnc(CN4CCN(C)CC4)cc32)sc1C(N)=O)c1ccccc1Br | recombinant Plk1 protein (Homo sapiens) | < 10 nM

Enquiry: Which IC50 reading was recorded for the compound C[C@@H](Oc1cc(-n2cnc3cc(CO)ncc32)sc1C(N)=O)c1ccccc1C(F)(F)F ?
Return: 10 to 100 nM

###

Measured IC50, listed per entry for reference.
Test target: recombinant Plk1 protein (Homo sapiens, UniProt P53350)
Construct: histidine tag (N)
Sequence (P53350 whole entry): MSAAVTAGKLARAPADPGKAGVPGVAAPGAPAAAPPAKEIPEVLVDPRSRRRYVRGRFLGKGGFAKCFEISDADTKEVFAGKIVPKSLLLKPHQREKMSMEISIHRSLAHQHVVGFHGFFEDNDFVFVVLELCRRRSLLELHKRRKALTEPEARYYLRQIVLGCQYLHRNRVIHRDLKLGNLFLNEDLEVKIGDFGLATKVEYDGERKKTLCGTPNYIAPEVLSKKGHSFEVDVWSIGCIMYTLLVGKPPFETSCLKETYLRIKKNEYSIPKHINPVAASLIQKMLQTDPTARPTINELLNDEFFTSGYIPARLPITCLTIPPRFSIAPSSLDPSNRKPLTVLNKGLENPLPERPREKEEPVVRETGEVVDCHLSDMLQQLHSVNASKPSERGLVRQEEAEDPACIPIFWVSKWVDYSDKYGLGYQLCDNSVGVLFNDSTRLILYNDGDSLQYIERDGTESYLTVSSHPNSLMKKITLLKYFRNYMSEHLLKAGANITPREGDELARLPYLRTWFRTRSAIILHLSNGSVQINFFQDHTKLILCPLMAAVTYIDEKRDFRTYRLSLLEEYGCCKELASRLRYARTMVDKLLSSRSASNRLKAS
Assay details: Plk1 kinase activity inhibition assay (33P-ATP, alpha casein substrate, flash plates)
Cond: enzymatic assay, 100 nM Li-ATP, 80 minutes at 30° C.

Compound | IC50
CCc1ccccc1COc1cc(-n2cnc3cnc(CO)cc32)sc1C(N)=O [Example 162] | 10 to 100 nM

Enquiry: Which IC50 reading was recorded for the compound C[C@@H](Oc1cc(-n2cnc3cnc(CN4CCN(CCN(C)C)CC4)cc32)sc1C(N)=O)c1ccccc1F [Example 136] ?
Return: 100 to 1000 nM

Enquiry: Which IC50 reading was recorded for the compound C[C@@H](Oc1cc(-n2cnc3cnc(CN4CCN(c5ncccn5)CC4)cc32)sc1C(N)=O)c1ccccc1C(F)(F)F [Example 77] ?
Return: 10 to 100 nM

Enquiry: Which IC50 reading was recorded for the compound C[C@@H](Oc1cc(-n2cnc3cnc(CN4CCN(C)CC4)cc32)sc1C(N)=O)c1ccccc1F [Example 101] ?
Return: < 10 nM

Enquiry: Which IC50 reading was recorded for the compound C[C@@H](Oc1cc(-n2cnc3cnc(CNC4CCC4)cc32)sc1C(N)=O)c1ccccc1C(F)(F)F [Example 105] ?
Return: 10 to 100 nM

###

Test target: recombinant Plk1 protein (Homo sapiens, UniProt P53350)
Construct: histidine tag (N); made in house; host or cells: SF9 insect cells
Assay details: Plk1 kinase activity inhibition assay (33P-ATP, alpha casein substrate, flash plates)
Assay type: biochemical
Cond: enzymatic assay, 100 nM Li-ATP, 80 minutes at 30° C.
pIC50: −log10 of the molar value.
Metric: pIC50

Molecule | pIC50
CCC(Oc1cc(-n2cnc3cnc(CN4CCCN(C)CC4)cc32)sc1C(N)=O)c1ccccc1Cl (stereo not shown) | 7.00 to 8.00
CC1CN(Cc2cc3c(cn2)ncn3-c2cc(O[C@H](C)c3ccccc3C(F)(F)F)c(C(N)=O)s2)C(C)CN1 (stereo partly shown) | 7.00 to 8.00
NC(=O)c1sc(-n2cnc3ccncc32)cc1OCc1c(Cl)cccc1Cl | 7.00 to 8.00

Then this molecule:
Enquiry: Which pIC50 reading was recorded for the molecule C[C@@H](Oc1cc(-n2cnc3cnc(CN4CCCN(C)CC4)cc32)sc1C(N)=O)c1ccccc1Cl ?
Return: > 8.00
